Overview of recorded normalised response for various molecules
test system: HCC1143; experiment: normalised response (% of control), CellTox Green; higher = less cell death (100 = DMSO, 0 = benzethonium chloride kill control); conditions: incubation time: 72 h
Kindly provide the numeric value in % only, without the unit symbol.

| molecule | result.unit | measured.result |
| --- | --- | --- |
| Cc1c2oc3c(C)ccc(C(=O)N[C@@H]4C(=O)N[C@H](C(C)C)C(=O)N5CCC[C@H]5C(=O)N(C)CC(=O)N(C)[C@@H](C(C)C)C(=O)O[C@@H]4C)c3nc-2c(C(=O)N[C@@H]2C(=O)N[C@H](C(C)C)C(=O)N3CCC[C@H]3C(=O)N(C)CC(=O)N(C)[C@@H](C(C)C)C(=O)O[C@@H]2C)c(N)c1=O [Dactinomycin] (10 nM) | % | 117 |

# input for lookup
# return recorded normalised response for entry COc1cc(Nc2ncc3c(n2)-c2ccc(Cl)cc2C(c2c(F)cccc2OC)=NC3)ccc1C(=O)O [Alisertib] (10000 nM)
76
